System: S. cerevisiae
testDetails: in vitro
measurementSetup: Saccharomyces cerevisiae
Catalogue of molecules with associated concentrations at which not toxic, S. cerevisiae cytotoxicity testing

Solved cases below.
{"columns": ["molecule", "systemName", "assayResult"],
 "data": [
  ["CC(C(=O)N1CCNCC1)c1ccc(Oc2nc3cc(F)c(F)cc3s2)cc1 (centres unmarked)", "S. cerevisiae", "≥ 100 µM"],
  ["CC(C)NC(=O)Cc1ccc(O)cc1Oc1nc2ccc(F)cc2s1", "S. cerevisiae", "≥ 100 µM"],
  ["CN(C)C(=O)NCc1ccc(Oc2nc3ccc(Cl)cc3s2)cc1", "S. cerevisiae", "≥ 100 µM"],
  ["CNC(=O)C(C)c1ccc(Oc2nc3cc(F)c(F)cc3s2)cc1 (centres unmarked)", "S. cerevisiae", "≥ 100 µM"]
]}

Then there is this molecule:
Memo: CC(C(=O)N1CCOCC1)c1ccc(Oc2nc3ccc(Cl)cc3s2)cc1 (centres unmarked) , reported concentrations at which not toxic, S. cerevisiae cytotoxicity testing: 50 to 100 µM

---

testDetails: Plasma pharmacokinetics in mouse
Format: in vivo, female Balb/c mouse
measurementSetup: female, Balb/c, mouse, plasma, 3 mg/kg; IV 3 mg free base/kg, single dose; read-out: AUC0-24 (converted)
Experimental: To investigate the relationship between anticryptosporidial activity and systemic exposure the plasma pharmacokinetics for NZ-369 were measured. […] The pharmacokinetics of NZ-369 following single intravenous (IV) and oral administration (PO) at 3 and 10 mg free base/kg respectively to the female Balb/c mouse.
observedProperty: AUC(0-t)

Memo: CNC(=O)C(C)c1ccc(Oc2nc3ccc(Cl)cc3s2)cc1 (stereo not shown) , reported AUC(0-t): 7540 ng·h/mL

---

testDetails: Kinetic solubility
Type: physicochemical
Flag rule - Kinetic Sol. less than 90 µM flags 1; the remaining entries get 0.

{"columns": ["molecule", "categoryLabel"],
 "data": [
  ["CC(C(=O)N1CCS(=O)(=O)CC1)c1ccc(Oc2nc3ccc(Cl)cc3s2)cc1 (stereo not shown) [NZ-553]", 0],
  ["CC(C(=O)NCCO)c1ccc(Oc2nc3ccc(Cl)cc3s2)cc1 (stereo not shown) [NZ-370]", 1],
  ["CC(C(=O)N1CCN(C)CC1)c1ccc(Oc2nc3ccc(Cl)cc3s2)cc1 (stereo not shown) [NZ-366]", 1]
]}

Prompt: For CC(C)NC(=O)C(C)c1ccc(Oc2nc3ccc(Cl)cc3s2)cc1 (stereo not shown) [NZ-327] , is the recorded Kinetic Sol. below the cut-off of 90 µM?
Response: 1

Prompt: For CC(C(=O)N1CCOCC1)c1ccc(Oc2nc3ccc(Cl)cc3s2)cc1 (stereo not shown) [NZ-365] , is the recorded Kinetic Sol. below the cut-off of 90 µM?
Response: 1

Prompt: For CNC(=O)C(C)c1ccc(Oc2nc3ccc(Cl)cc3s2)cc1 (stereo not shown) [NZ-369] , is the recorded Kinetic Sol. below the cut-off of 90 µM?
Response: 1

Prompt: For CC(C(=O)NCCN(C)C)c1ccc(Oc2nc3ccc(Cl)cc3s2)cc1 (stereo not shown) [NZ-516] , is the recorded Kinetic Sol. below the cut-off of 90 µM?
Response: 0

---

testDetails: Plasma pharmacokinetics in mouse
Format: in vivo, female Balb/c mouse
measurementSetup: female, Balb/c, mouse, plasma, 3 mg/kg; IV 3 mg free base/kg, single dose; read-out: Vdss
observedProperty: Vd (L/kg)
State just the number; it will be interpreted in L/kg.

Memo: CNC(=O)C(C)c1ccc(Oc2nc3ccc(Cl)cc3s2)cc1 (stereo not shown) , reported Vd: 1.7
